tested on: Klebsiella pneumoniae; experiment: Antibacterial activity against Klebsiella pneumoniae 700603 by microdilution assay; format: functional
readout: MIC

Below: 2 compounds and their reported MIC.
| itemSmiles | valueReported |
| --- | --- |
| CCCCCCCCCCCO[C@@H]1[C@@H](N)[C@@H](O[C@H]2[C@H](O)[C@@H](O)[C@H](N)C[C@@H]2N)O[C@H](CN)[C@H]1O | > 128 µg/mL |
| CCCCCCCCCCCO[C@@H]1[C@@H](N)[C@@H](O[C@H]2[C@H](O)[C@@H](OCCCCCCC)[C@H](N)C[C@@H]2N)O[C@H](CN)[C@H]1O | 4 µg/mL |

Attention now shifts to the item below.
Query the reported MIC for Klebsiella pneumoniae; item: CCCCCCCO[C@@H]1[C@@H](O)[C@H](O[C@H]2O[C@H](CN)[C@@H](O)[C@H](O)[C@H]2N)[C@@H](N)C[C@H]1N > 128 µg/mL

---

Parameter MIC: see the listing below.
tested on: Escherichia coli; experiment: Antibacterial activity against Escherichia coli PAZ505H8101 harboring AAC6'-1B by microdilution assay; format: functional

For CCCCCCCCCCO[C@@H]1[C@@H](N)[C@@H](O[C@H]2[C@H](O)[C@@H](OCCCCCCCCCC)[C@H](N)C[C@@H]2N)O[C@H](CN)[C@H]1O , what is its reported MIC? 8 µg/mL

Note, next up: CCCCCCCO[C@@H]1[C@@H](O)[C@H](O[C@H]2O[C@H](CN)[C@@H](O)[C@H](O)[C@H]2N)[C@@H](N)C[C@H]1N > 128 µg/mL

Note, next up: CCCCCCCCCO[C@@H]1[C@@H](N)[C@@H](O[C@H]2[C@H](O)[C@@H](OCCCCCCCCC)[C@H](N)C[C@@H]2N)O[C@H](CN)[C@H]1O 2 to 4 µg/mL

---

Parameter MIC: see the listing below.
test system: Pseudomonas aeruginosa; assay: Antibacterial activity against Pseudomonas aeruginosa FO3 harboring AAC6'-2A by microdilution assay; type: functional
The reply should be a number in mg/L, with the unit left off.

Below: 3 molecules and their reported MIC.
| itemSmiles | MIC / mg/L |
| --- | --- |
| NC[C@H]1O[C@H](O[C@H]2[C@H](O)[C@@H](OCCCc3ccc4ccccc4c3)[C@H](N)C[C@@H]2N)[C@H](N)[C@@H](OCCCc2ccc3ccccc3c2)[C@@H]1O | 16 |
| NC[C@H]1O[C@H](O[C@H]2[C@H](O)[C@@H](O[C@H]3O[C@H](CO)[C@@H](O)[C@H](N)[C@H]3O)[C@H](N)C[C@@H]2N)[C@H](N)C[C@@H]1O | 128 |
| NC[C@H]1O[C@H](O[C@H]2[C@H](O)[C@@H](OCCCCc3ccc4ccccc4c3)[C@H](N)C[C@@H]2N)[C@H](N)[C@@H](OCCCCc2ccc3ccccc3c2)[C@@H]1O | 8 |

For NCC[C@H](O)C(=O)N[C@@H]1C[C@H](N)[C@@H](O[C@H]2O[C@H](CN)[C@@H](O)[C@H](O)[C@H]2O)[C@H](O)[C@H]1O[C@H]1O[C@H](CO)[C@@H](O)[C@H](N)[C@H]1O , what is its reported MIC? 8

Note, next up: CCCCCCCO[C@@H]1[C@@H](N)[C@@H](O[C@H]2[C@H](O)[C@@H](OCCCCCCC)[C@H](N)C[C@@H]2N)O[C@H](CN)[C@H]1O 8

Note, next up: CCCCCCCCCCCO[C@@H]1[C@@H](N)[C@@H](O[C@H]2[C@H](O)[C@@H](OCCCCCCC)[C@H](N)C[C@@H]2N)O[C@H](CN)[C@H]1O 4

Note, next up: CCCCCCCCCCO[C@@H]1[C@@H](N)[C@@H](O[C@H]2[C@H](O)[C@@H](OCCCCCCCCCC)[C@H](N)C[C@@H]2N)O[C@H](CN)[C@H]1O 4

Note, next up: CCCCCCCCO[C@@H]1[C@@H](N)[C@@H](O[C@H]2[C@H](O)[C@@H](OCCCCCCCC)[C@H](N)C[C@@H]2N)O[C@H](CN)[C@H]1O 8

---

Parameter MIC: see the listing below.
tested on: Staphylococcus aureus; test: Antibacterial activity against methicillin-resistant Staphylococcus aureus ATCC 33592 by microdilution assay; type: functional
The reply should be a number in µg/mL, with the unit left off.

| itemSmiles | MIC / µg/mL |
| --- | --- |
| CCCCCCCCCCCO[C@@H]1[C@@H](N)[C@@H](O[C@H]2[C@H](O)[C@@H](OCCCCCCC)[C@H](N)C[C@@H]2N)O[C@H](CN)[C@H]1O | 1 |

Attention now shifts to the item below.
For CCCCCCCO[C@@H]1[C@@H](N)[C@@H](O[C@H]2[C@H](O)[C@@H](OCCCCCCC)[C@H](N)C[C@@H]2N)O[C@H](CN)[C@H]1O , what is its reported MIC? 8

---

system: Escherichia coli; test: Antibacterial activity against Escherichia coli PAZ505H8101 harboring AAC6'-1B by microdilution assay; assay type: functional
Parameter MIC: see the listing below.

Below: 3 molecules and their reported MIC.
| itemSmiles | MIC |
| --- | --- |
| CCCCCCCO[C@@H]1[C@@H](N)[C@@H](O[C@H]2[C@H](O)[C@@H](O)[C@H](N)C[C@@H]2N)O[C@H](CN)[C@H]1O | > 128 µg/mL |
| CCCCCCCCCCCO[C@@H]1[C@@H](O)[C@H](O[C@H]2O[C@H](CN)[C@@H](O)[C@H](O)[C@H]2N)[C@@H](N)C[C@H]1N | > 128 µg/mL |
| NC[C@H]1O[C@H](O[C@H]2[C@H](O)[C@@H](O)[C@H](N)C[C@@H]2N)[C@H](N)[C@@H](O)[C@@H]1O | > 128 µg/mL |

Attention now shifts to the item below.
Query the reported MIC for Escherichia coli; item: NC[C@H]1O[C@H](O[C@H]2[C@H](O)[C@@H](OCCCc3ccc4ccccc4c3)[C@H](N)C[C@@H]2N)[C@H](N)[C@@H](OCCCc2ccc3ccccc3c2)[C@@H]1O 4 to 8 µg/mL

---

tested on: Staphylococcus aureus; experiment: Antibacterial activity against methicillin-resistant Staphylococcus aureus ATCC 33592 by microdilution assay; type: functional
readout: MIC

| itemSmiles | MIC |
| --- | --- |
| NCC[C@H](O)C(=O)N[C@@H]1C[C@H](N)[C@@H](O[C@H]2O[C@H](CN)[C@@H](O)[C@H](O)[C@H]2O)[C@H](O)[C@H]1O[C@H]1O[C@H](CO)[C@@H](O)[C@H](N)[C@H]1O | 8 to 16 µg/mL |
| CCCCCCCCCO[C@@H]1[C@@H](N)[C@@H](O[C@H]2[C@H](O)[C@@H](OCCCCCCCCC)[C@H](N)C[C@@H]2N)O[C@H](CN)[C@H]1O | 2 to 4 µg/mL |
| CCCCCCCO[C@@H]1[C@@H](O)[C@H](O[C@H]2O[C@H](CN)[C@@H](O)[C@H](O)[C@H]2N)[C@@H](N)C[C@H]1N | > 128 µg/mL |

For CCCCCCCO[C@@H]1[C@@H](N)[C@@H](O[C@H]2[C@H](O)[C@@H](O)[C@H](N)C[C@@H]2N)O[C@H](CN)[C@H]1O , what is its reported MIC? > 128 µg/mL

---

experiment: Cytotoxicity against mouse J774 cells assessed as cell viability at 10 uM after 24 hrs by MTT assay relative to control; type: cell-based; conditions: J774 cells, read-out: Activity
readout: viability at 24 h, 10 µM (%)
The reply should be a number in %, with the unit left off.

| itemSmiles | viability at 24 h, 10 µM [%] |
| --- | --- |
| CCCCCCCO[C@@H]1[C@@H](N)[C@@H](O[C@H]2[C@H](O)[C@@H](OCCCCCCC)[C@H](N)C[C@@H]2N)O[C@H](CN)[C@H]1O | 96.3 |
| CCCCCCCCCCO[C@@H]1[C@@H](N)[C@@H](O[C@H]2[C@H](O)[C@@H](OCCCCCCCCCC)[C@H](N)C[C@@H]2N)O[C@H](CN)[C@H]1O | 85.5 |
| CCCCCCCCCCCO[C@@H]1[C@@H](N)[C@@H](O[C@H]2[C@H](O)[C@@H](O)[C@H](N)C[C@@H]2N)O[C@H](CN)[C@H]1O | 81.8 |
| CCCCCCCCO[C@@H]1[C@@H](N)[C@@H](O[C@H]2[C@H](O)[C@@H](OCCCCCCCC)[C@H](N)C[C@@H]2N)O[C@H](CN)[C@H]1O | 91.3 |
| CCCCCCCCCO[C@@H]1[C@@H](N)[C@@H](O[C@H]2[C@H](O)[C@@H](OCCCCCCCCC)[C@H](N)C[C@@H]2N)O[C@H](CN)[C@H]1O | 86.7 |

Attention now shifts to the item below.
For CCCCCCCO[C@@H]1[C@@H](O)[C@H](O[C@H]2O[C@H](CN)[C@@H](O)[C@H](O)[C@H]2N)[C@@H](N)C[C@H]1N , what is its reported viability at 24 h, 10 µM? 84.3

The origin of these recorded values is ChEMBL document CHEMBL4265973.
